B1: BCL2L13 (parent)
chain: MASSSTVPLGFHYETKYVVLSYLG

variants of: B1; experiment: protein stability index of a GFP-peptide fusion (GPS, HEK-293T) (PSI 1-6); higher = more stable; conditions: c terminus: a fixed tail appended;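 also: lentivirally expressed fusions sorted by FACS into six bins by GFP to DsRed ratio, PSI derived from sequencing read proportions per bin multiplied by bin number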
Tick criterion met if protein stability index is 2 or greater. Tick criterion not met if protein stability index is less than 2.

variant-key | assigned-category
S21Q | criterion met
L9R | criterion not met
L23F | criterion met
E14T | criterion met
Y17F | criterion met
V7H | criterion met
G10I | criterion not met
E14A | criterion met
H12Q | criterion met
V7S | criterion met
V19F | criterion not met
V19K | criterion not met
T6K | criterion met
Y13V | criterion met
G10Y | criterion met
S3R | criterion met
L23P | criterion not met
S3V | criterion met
E14S | criterion met
S4A | criterion met
V18P | criterion not met
S4E | criterion met
V7E | criterion met
L23I | criterion met
E14Y | criterion met
H12P | criterion met
K16H | criterion not met
S4N | criterion not met
F11N | criterion met
Y22T | criterion met
E14Q | criterion met
L23D | criterion not met
L9P | criterion met
S4T | criterion met
Y22Q | criterion met
T6W | criterion met
V7K | criterion met
A2I | criterion not met
P8V | criterion met
T15N | criterion not met
G10V | criterion met
V19I | criterion met
G24H | criterion met
V18R | criterion not met
